Reference for the values: the supplement of paper PMC7125110

B1: glmS ribozyme (parent)
chain: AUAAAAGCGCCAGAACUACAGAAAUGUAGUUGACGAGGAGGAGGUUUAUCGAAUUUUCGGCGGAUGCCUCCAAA

# Variants of: B1
# Protocol Details: self-cleavage kobs at 640 uM GlcN6P; higher = faster cleavage; RNA array
# Test Parameters: with glucosamine-6-phosphate
Fewer inactive variants are shown than the library holds.
Entries and their measured self-cleavage kobs at 640 uM GlcN6P follow.
Measure Name: self-cleavage kobs at 640 uM GlcN6P

>>> print(df.to_string())
                              residue_string        result
 0  AUAAAAGCGCCAGACCUACAGAAAUGUAGUUGACGAGGAGGAGCUUUAUCGAAUUCUCGGCGGAUGCCUCCAAA   < 1e-05 s⁻¹
 1  AUAAAAGCGCCAGAACUACAGAAAUGUAGAUGACGAGCUGGAGGUUUAUCGAAUUUUCGGCGGAUGCCUCCAAA   < 1e-05 s⁻¹
 2  AUAAAAGCGCCACAACUACAGAAAUGUAGUUGACGAGGACGCGGUUUAUCGAAUUUUCGGCGGAUGCCUCCAAA   < 1e-05 s⁻¹
 3  AUAAAAGCGCCAGAACUACAGAAAUGUAGUUGACGAGGAGAAGGUUUAUCGAAUUUUCGGCAGAUGCCUCCAAA   < 1e-05 s⁻¹
 4  AUAAAAGCGCCAGAACUACAGAAAUGUAGUGGACCAGGAGGAGGUUUAUCGAAUUUUCGGCGGAUGCGUCCAAA   < 1e-05 s⁻¹
 5  AUAAAAGCGCCAGAGCUACAGAAAUGUAGUUGACGAGGAGGAGGUUUAUCGAAUAUUCGGCUCAUGCCUCCAAA   < 1e-05 s⁻¹
 6  AUAAAAGCGCCAGCACUACAGAAAUGUAGUUGACGCGGAGGAGGUUUAUCGUAUUUUCGGCGGAUGCCUCCAAA   < 1e-05 s⁻¹
 7  AUAAAAGCGCCAGAACUACAGAAAUGUAGUUGACGAGGCGGAGGUUUAUCGAAUUUUCGGCGGAGGCCUGCAAA   < 1e-05 s⁻¹
 8  AUAAAAGCGCCAGAACUACAGAAAUGUAGUUGACGAGGAGGACGUUUAUCGAAUUUUCGCCGGAUGCCUCCAAA   < 1e-05 s⁻¹
 9  AUAAAAGCGCCAGGACUACAGAAAUGUAGUUGACGAGGAGGAGGUUUAUCGAAUUUUCGGCGGAUGCCUGCAAA  0.000614 s⁻¹
10  AUAAAAGCGCCAAAACUACAGAAAUGUAGUUGACGAGGAGGAGGUUUAUCGAUUUUUCGGCGGAUGCCUCCAAA  7.57e-05 s⁻¹
11  AUAAAAGCGCCAGAACUACAGAAAUGUAGUUGACGAGGAGGAGGUUUACCGAAUUUUUGGCGGAUGCCUCCAAA   < 1e-05 s⁻¹
12  AUAAAAGCGCCAGAACUACAGAAAUGUAGUUGACGAGGAGGAGGUUUAGCGAGUUUUCGGCGGGUGACUCCAAA   0.00016 s⁻¹
13  AUAAAAGGCCCAGAACUACAGAAAUGUAGUUGACGAGGCGGAGGUUUAUCGAAUUUUCGGCGGAUGCCUCCAAA   < 1e-05 s⁻¹
14  AUAAAAGCGCCGGAUCUACAGAAAUGUAGUUGACGAGGAGGAGGCUUAUCGAAUUUUCAGCGGAUGCCUCCAAA   < 1e-05 s⁻¹
15  AUAAACGCGCCAGAACUACAGAAAUGUAGUUGACGAGGAGGUGGUUUAUCGAAUUUUCGGCGGAUGCCUGCAAA   < 1e-05 s⁻¹
16  AUAAAAGCGCCAGAACUACAGAAAUGUAGUUGACGAGGAGUAGGUUUAUCGAAUUUUCGGCGGAUGCCUACAAA    0.0189 s⁻¹
17  AUAAAAGCGCCAGAACUACAGAAAUGUAGUUGACGAGGAGGAGGCUUAUCGAAUUUUCGGCGGAUGCCUCUAAA  0.000828 s⁻¹
18  AUAAAAGCGCCAGAACUACAGAAAUGUAGCUGACGAGGAGGAGGUUUUUCGAAUUUUCGGCGGAUGCCUCCAAA   < 1e-05 s⁻¹
19  AUAAAAGGGCCAGAACUACAGAAAUGUAGUUGACAAGGAGGAGGUUUAUCGAAUCUUCGUCGGAUGACUCCAAA   < 1e-05 s⁻¹
20  AUAAAAGCGCCAGAACUACAGAAAUGUAGAUGACGAGGAGGAGGUUUAUCGAAUUUUCGGCGGAUGUCUCCAAA   0.00036 s⁻¹
21  AUAAAAGCGCAAGAACUACAGAAAUGUAGUUGACGAGGAGGAGGUUUAUCGAAUUUUCGGCGGAUUCCUCCAAA   < 1e-05 s⁻¹
22  AUAAAAGCGCCCGAACUACAGAAAUGUAGCUGACGAGGAGGAGGUUUAUCGAAUUUUCGGCGGAUGCCUCUAAA  0.000258 s⁻¹
23  AUAAAAGCGCCAGAACUACAGAAAUGUAGUUGACGAGGAGGAGUUUUAUCGAAUUUUUGGCGGAUGCCUCUAAA   < 1e-05 s⁻¹
24  AUAAAAGUACCAGAUCUACAGAAAUGUAGUUGACGAGGGGGAGGUUUAUCGAAUUUUCGGCGGAUGCCUCCAAA   < 1e-05 s⁻¹
25  AUAAAAGCGCCAGAACUACAGAAAUGUAGUAGAAGAGGAGGAGGUUUAUCGAAUAUUCGGCGGAUGGCUCCAAA   < 1e-05 s⁻¹
26  AUAAAAGCGCCACAACUACAGAAAUGUAGUUGACGACGAGGAGGGUUAUCGAAUUUUCGGCGGAUGCCUCCAAA   < 1e-05 s⁻¹
27  AUAAAAGCGCCAGAACUACAGAAAUGUAGUUGACGAGGAGGAGGUAUAUCGAAUUUUCGGCGGAUGUCUCCAAA  0.000811 s⁻¹
28  AUAAAAGCGCCAGGACUACAGAAAUGUAGUUGACGAGGAGGAGUUUUAUCGAAUUUUCGGCGGUUGCCUCCAAA   < 1e-05 s⁻¹
29  AUAAAAGCGCCAGAACUACAGAAAUGUAGUUGACGAGGAGGAGGGUUAUCUAAUUUUCGGCGGAUGCCUCCAAA   < 1e-05 s⁻¹
30  AUAAAAGCGCCAGAACUACAGAAAUGUAGGUGACGAGGAGGAGGUUUUUCGAAUUUUCGGCGGAAGCCGUCAAA  4.35e-05 s⁻¹
31  AUAAAAGCGCCAGCACUACAGAAAUGUAGUUGACGAGGAGGAGGUAUAUCGAAUUUUCGGCGGAUGCCUCCAAA  9.13e-05 s⁻¹
32  AUAAAAGCGCCAGAACUACAGAAAUGUAGUUGACGAGGAGUAGGCUUAUCGAAUUUUCGGCGGAUGCCUCCAAA  0.000157 s⁻¹
33  AUAAAAGCGCGAGAACUACAGAAAUGUAGUGGACGAGGAGGAGAUUUAUCGAAUUUUCGGCGGACGCCUCCAAA   < 1e-05 s⁻¹
34  AUAAAAGCGCCAGACCUACAGAAAUGUAGUUGACGAGGAGGAGGUUUAUCGAAUUUUCGGCGGAUGCCUCUAAA   0.00111 s⁻¹
35  AUAAAGGCGCCAGAACUACAGAAAUGUAGUUGACGAGGAGGAGUUUUAUCGAAUUUUCGGCUAAUGCCACCAAA   < 1e-05 s⁻¹
36  AUAAAAGCGCCAGAACUACAGAAAUGUAGUUGACGAGGAGGAGGUUUAUCGAAUUUUCGGCGGAGACCUCCAAA  0.000612 s⁻¹
